Below are Kd values for Peptidyl-prolyl cis-trans isomerase NIMA-interacting 1 (Homo sapiens, UniProt Q13526) collected from several publications.
parameter measured: Kd (µM)

>  <molecule>
CC(=O)N[C@H](C(=O)N1CCC[C@@H]1C(N)=O)[C@@H](C)OP(=O)(O)O

>  <inequality operator>
=

>  <obs value>
100

$$$$
>  <molecule>
NC(=O)[C@@H]1CCCN1C(=O)CCCC(=O)O

>  <inequality operator>
>

>  <obs value>
2000

$$$$
>  <molecule>
C[C@H]1C[C@H]2[C@@H]3CCC4=CC(=O)C=C[C@]4(C)[C@@]3(F)[C@@H](O)C[C@]2(C)[C@@]1(O)C(=O)COP(=O)(O)O

>  <inequality operator>
=

>  <obs value>
2.2

$$$$
>  <molecule>
CC(=O)N[C@H](C(=O)N1CC(O)CC1C(N)=O)[C@@H](C)OP(=O)(O)O (single isomer, unassigned)

>  <inequality operator>
=

>  <obs value>
800

$$$$
>  <molecule>
C[C@@H]1NC(=O)c2cc3cc(c2)C(=O)NC[C@H](NC(=O)[C@@H](C)NC(=O)[C@@H](C)NC(=O)[C@H](CCCNC(=N)N)NC(=O)[C@H](Cc2ccc4ccccc4c2)NC(=O)[C@@H]2CCCCN2C(=O)[C@@H]([C@H](C)O)NC(=O)CNC1=O)C(=O)N[C@@H](Cc1ccccc1)C(=O)N[C@@H](Cc1ccc2ccccc2c1)C(=O)N[C@@H](CCCNC(=N)N)C(=O)N[C@@H](CCCNC(=N)N)C(=O)N[C@@H](CCCNC(=N)N)C(=O)N[C@@H](CCCNC(=N)N)C(=O)N[C@H](C(N)=O)CNC3=O

>  <inequality operator>
=

>  <obs value>
0.62

$$$$
